The entries below come with measured Kd values attached.
Target of assay: T1, dog activated Protein C (dog, UniProt Q28278 43-456)
T1 construct: mature; also called dog aPC; dAPC
T1 sequence (looked up): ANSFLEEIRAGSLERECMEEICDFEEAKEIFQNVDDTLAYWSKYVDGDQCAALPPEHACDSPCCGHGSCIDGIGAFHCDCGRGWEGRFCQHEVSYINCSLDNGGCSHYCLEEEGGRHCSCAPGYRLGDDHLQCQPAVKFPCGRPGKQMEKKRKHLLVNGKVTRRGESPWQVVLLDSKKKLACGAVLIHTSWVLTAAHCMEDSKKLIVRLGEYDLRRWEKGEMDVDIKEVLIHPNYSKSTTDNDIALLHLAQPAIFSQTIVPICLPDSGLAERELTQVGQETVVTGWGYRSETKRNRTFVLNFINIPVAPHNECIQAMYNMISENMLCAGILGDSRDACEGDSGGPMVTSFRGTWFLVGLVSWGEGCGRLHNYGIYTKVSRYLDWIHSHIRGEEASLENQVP
Assay text: Biacore, Fab
Observation type: Kd (nM)

1) C7I7 Fab (Fab, V domains shown, Human Fab (lambda) from a phage library, expressed in E. coli; also called C717) VH: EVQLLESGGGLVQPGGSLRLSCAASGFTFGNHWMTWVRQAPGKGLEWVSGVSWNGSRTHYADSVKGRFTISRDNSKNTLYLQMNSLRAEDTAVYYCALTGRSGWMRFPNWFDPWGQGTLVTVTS VL: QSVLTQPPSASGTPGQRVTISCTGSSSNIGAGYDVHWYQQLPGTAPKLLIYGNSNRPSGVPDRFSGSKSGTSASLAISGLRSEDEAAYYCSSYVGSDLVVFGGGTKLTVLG: 1.3
2) C25K23 Fab (Fab, V domains shown, Human Fab (lambda) from a phage library, expressed in E. coli; also called Fab C25K23) VH: EVQLLESGGGLVQPGGSLRLSCAASGFTFSSYWMSWVRQAPGKGLEWVSGVSWNGSRTHYADSVKGRFTISRDNSKNTLYLQMNSLRAEDTAVYYCALTGRSGWMRFPNWFDPWGQGTLVTVTS VL: QSVLTQPPSASGTPGQRVTISCTGSSSNIGAAYDVHWYQQLPGTAPKLLIYGNNKRPSGVPDRFSGSKSGTSASLAISGLRSEDEADYYCQSYDSSLSGSVFGGGTKLTVLG: 5.2
3) C7A23 Fab (Fab, V domains shown, Human Fab (lambda) from a phage library, expressed in E. coli) VH: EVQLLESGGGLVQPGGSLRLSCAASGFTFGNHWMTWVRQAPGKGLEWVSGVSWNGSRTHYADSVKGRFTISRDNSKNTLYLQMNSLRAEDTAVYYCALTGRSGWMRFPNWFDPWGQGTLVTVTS VL: QSVLTQPPSASGTPGQRVTISCSGSSSNIGNNYVSWYQQLPGTAPKLLIYRNNQRPSGVPDRFSGSKSGTSASLAISGLRSEDEADYYCQSYDSDLSGPYVLFGGGTKLTVLG: 1.3
4) T46J23 Fab (Fab, V domains shown, Human Fab (lambda), expressed in E. coli) VH: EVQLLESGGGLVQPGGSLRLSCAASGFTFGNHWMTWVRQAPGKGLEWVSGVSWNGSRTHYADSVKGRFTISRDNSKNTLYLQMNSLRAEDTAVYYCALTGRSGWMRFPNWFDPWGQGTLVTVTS VL: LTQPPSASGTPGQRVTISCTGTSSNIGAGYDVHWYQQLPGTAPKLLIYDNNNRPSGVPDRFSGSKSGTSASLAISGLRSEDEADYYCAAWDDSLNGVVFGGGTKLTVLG: 21
